Origin of measurements: patent EP4417602A1

System: DIGSA
Assay: C. Herbicidal pre-emergence action, weed and crop plants (Tables C)
Type: in vivo, Digitaria sanguinalis
Details: application rate 320 g/ha; Table C5a
MEASURED_METRIC: pre-emergence activity against DIGSA (%)
One number for each entry, in %.

COMPOUND: COCc1c(C(=O)N2CCCC2Cc2ccccc2F)cnn1C (single isomer, unassigned)
TARGET_SYSTEM: DIGSA
UNIT_NAME: %
pre-emergence activity against DIGSA: 90
//
COMPOUND: COCc1nn(C)cc1C(=O)N1CCCC1Cc1ccccc1F (racemic)
TARGET_SYSTEM: DIGSA
UNIT_NAME: %
pre-emergence activity against DIGSA: 90

Working through the 4 compounds below one at a time, give pre-emergence activity against DIGSA for each.
1. COCc1nn2c(c1C(=O)N1CCCC1Cc1ccccc1F)CCC2 (racemic)
2. Cn1cc(C(=O)N2CCCC2Cc2ccc(F)cc2F)c(COc2ccccc2)n1 (racemic)
3. COCc1nn(C(=O)OC(C)(C)C)cc1C(=O)N1CCCC1Cc1ccccc1F (racemic)
4. COCc1nn(C)cc1C(=O)N1CCCC1C(O)c1ccccc1F (single isomer, unassigned)

[90, 90, 90, 90]

Working through the 4 compounds below one at a time, give pre-emergence activity against DIGSA for each.
1. C=C(c1ccccc1F)C1CCCN1C(=O)c1cn(C)nc1COC (racemic)
2. CNC(=O)n1cc(C(=O)N2CCCC2Cc2ccccc2F)c(COC)n1 (racemic)
3. Cn1cc(C(=O)N2CCCC2Cc2ccccc2F)c(COCC(F)F)n1 (racemic)
4. Cn1cc(C(=O)N2CCCC2Cc2ccccc2F)c(COc2ccccc2)n1 (racemic)

[100, 100, 90, 100]

Fill in: pre-emergence activity against DIGSA on DIGSA, entry COCc1nn(C)cc1C(=O)N1CCCC1Cc1cc(F)ccc1F (racemic)
100
